Measured values drawn from patent US11371056B2 for this set.

Exercise: for every item that follows, state its recorded Residual turnover.
# Test system: Pseudomonas fluorescens HPPD polypeptide (wild-type and mutants)
# Assay Procedure: Coupled HPPD activity assay: turnover and residual turnover in crude HPPD polypeptide extracts with and without Cmpd. 1
# Assay type: biochemical
# Condition Set: presence of 100 μM Cmpd. 1; changes in absorbance (OD) at 320 nm in the coupled assay, 30 min
Answer with a bare number; do not write a unit.

Data request: Return reported Residual turnover. Input molecule: SEQ ID NO:30 (protein, mutant HPPD polypeptide) MADLYENPMGLMGFEFIEFASPTPGTLEPIFEIMGFTKVATHRSKNVHLYRQGEINLILNNEPNSIASYFAAEHGPSVCGMAFRVKDSQKAYNRALELGAQPIHIDTGPMELNLPAIKGIGGAPLYLIDRFGEGSSIYDIDFVYLEGVERNPVGAGLKVIDHLTHNVYRGRMVYWANFYEKLFNFREARYFDIKGEYTGLTSKAMSAPDGMIRIPLNEESSKGAGQIEEFLMQFNGEGIQHVAFLTDDLVKTWDALKKIGMRFMTAPGDEYYEMLEGRLPDHGEPVDQLQARGILLDGSSVEGDKRLLLQIFSEQLMGPVFFEFIQRKGDDGFGPHSFKVLFEQIERDQVRRGVLTAD
Data returned: 0.18

Data request: Determine from records and report Residual turnover for SEQ ID NO:12 (protein, mutant HPPD polypeptide) MADLYENPMGLMGFEFIEFASPTPGTLEPIFEIMGFTKVATHRSKNVHLYRQGEINLILNNEPNSIASYFAAEHGPSVCGMAFRVKDSQKAYNRALELGAQPIHIDTGPMELNLPAIKGIGGAPLYLIDRFGEGSSIYDIDFVYLEGVERNPVGAGLKVIDHLTHNVYRGRMVYWANFYEKLFNFREARYFDIKGEYTGLTSKAMSAPDGMIRIPLNEESSKGAGQIEEFLMQFNGEGIQHVAFLTDDLVKTWDALKKIGMRFMTAPGDEYYEMLEGRLPDHGEPVDQLQARGILLDGSSVEGDKRLLLQIFSERLMGPVFFEFIQRKGDDGFGPDSFKVLFEQIERDQVRRGVLTAD
Data returned: 0.076

Data request: Entry SEQ ID NO:63 (protein, mutant HPPD polypeptide) MADLYENPMGLMGFEFIEFASPTPGTLEPIFEIMGFTKVATHRSKNVHLYRQGEINLILNNEPNSIASYFAAEHGPSVCGMAFRVKDSQKAYNRALELGAQPIHIDTGPMELNLPAIKGIGGAPLYLIDRFGEGSSIYDIDFVYLEGVERNPVGAGLKVIDHLTHNVYRGRMVYWANFYEKLFNFREARYFDIKGEYTGLTSKAMSAPDGMIKIALNEESSKGAGQIEEFLMQFNGEGIQHVAFLTDDLVKTWDALKKIGMRFLTAPGDEYYEMLEGRLPDHGEPVDQLQARGILLDGSSVEGDKRLLLQIFSEKLMGPVFFEFIQRKGDDGFGPHSFKVLFEQMERDQVRRGVLTAD needs its Residual turnover filled in; supply it.
Data returned: 0.139

Data request: Answer with the recorded Residual turnover of SEQ ID NO:60 (protein, mutant HPPD polypeptide) MADLYENPMGLMGFEFIEFASPTPGTLEPIFEIMGFTKVATHRSKNVHLYRQGEINLILNNEPNSIASYFAAEHGPSVCGMAFRVKDSQKAYNRALELGAQPIHIDTGPMELNLPAIKGIGGAPLYLIDRFGEGSSIYDIDFVYLEGVERNPVGAGLKVIDHLTHNVYRGRMVYWANFYEKLFNFREARYFDIKGEYTGLTSKAMSAPDGMIKIPLNEESSKGAGQIEEFLMQFNGEGIQHVAFLTDDLVKTWDALKKIGMRFLTAPGDEYYEMLEGRLPDHGEPVDQLQARGILLDGSSVEGDKRLLLQIFSEKLMGPVFFEFIQRKGDDGFGPDSFKVLFEQMERDQVRRGVLTAD only.
Data returned: 0.14

Data request: Please list Residual turnover recorded for the molecule SEQ ID NO:11 (protein, mutant HPPD polypeptide) MADLYENPMGLMGFEFIEFASPTPGTLEPIFEIMGFTKVATHRSKNVHLYRQGEINLILNNEPNSIASYFAAEHGPSVCGMAFRVKDSQKAYNRALELGAQPIHIDTGPMELNLPAIKGIGGAPLYLIDRFGEGSSIYDIDFVYLEGVERNPVGAGLKVIDHLTHNVYRGRMVYWANFYEKLFNFREARYFDIKGEYTGLTSKAMSAPDGMIRIPLNEESSKGAGQIEEFLMQFNGEGIQHVAFLTDDLVKTWDALKKIGMRFMTAPGDEYYEMLEGRLPDHGEPVDQLQARGILLDGSSVEGDKRLLLQIFSEQLMGPVFFEFIQRKGDDGFGPDSFKVLFEQIERDQVRRGVLTAD
Data returned: 0.085

Data request: Provide one value: measured Residual turnover of SEQ ID NO:20 (protein, mutant HPPD polypeptide) MADLYENPMGLMGFEFIEFASPTPGTLEPIFEIMGFTKVATHRSKNVHLYRQGEINLILNNEPNSIASYFAAEHGPSVCGMAFRVKDSQKAYNRALELGAQPIHIDTGPMELNLPAIKGIGGAPLYLIDRFGEGSSIYDIDFVYLEGVERNPVGAGLKVIDHLTHNVYRGRMVYWANFYEKLFNFREARYFDIKGEYTGLTSKAMSAPDGMIRIPLNEESSKGAGQIEEFLMQFNGEGIQHVAFLTDDLVKTWDALKKIGMRFMTAPGDEYYEMLEGRLPDHGEPVDQLQARGILLDGSSVEGDKRLLLQIFSERLMGPVFFEFIQRKGDDGFGPDSFKVLFEQMERDQVRRGVLTAD
Data returned: 0.082

Data request: For the molecule SEQ ID NO:35 (protein, mutant HPPD polypeptide) MADLYENPMGLMGFEFIEFASPTPGTLEPIFEIMGFTKVATHRSKNVHLYRQGEINLILNNEPNSIASYFAAEHGPSVCGMAFRVKDSQKAYNRALELGAQPIHIDTGPMELNLPAIKGIGGAPLYLIDRFGEGSSIYDIDFVYLEGVERNPVGAGLKVIDHLTHNVYRGRMVYWANFYEKLFNFREARYFDIKGEYTGLTSKAMSAPDGMIRIPLNEESSKGAGQIEEFLMQFNGEGIQHVAFLTDDLVKTWDALKKIGMRFMTAPGDEYYEMLEGRLPDHGEPVDQLQARGILLDGSSVEGDKRLLLQIFSEKLMGPVFFEFIQRKGDDGFGPHSFKVLFEQMERDQVRRGVLTAD , give its reported Residual turnover.
Data returned: 0.158
